- systemUnderTest: T1, MUC1-SEA-His protein (UniProt P15941 1039-1148, limits assumed)
- T1 construct: domain: SEA; Recombinant antigen used for ELISA coating and as Biacore analyte; also called MUC-SEA-His; antigen protein; not shown: His tag
- T1 sequence (looked up): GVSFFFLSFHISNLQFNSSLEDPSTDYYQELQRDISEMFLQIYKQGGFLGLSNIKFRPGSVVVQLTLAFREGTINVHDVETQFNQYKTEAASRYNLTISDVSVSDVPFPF
- protocol: SPR Biacore T200, antibody captured, antigen as analyte
metric: koff (s⁻¹)
Give a bare numeral; the unit s⁻¹ is implied.

Req: Given VH4 + VL5 (antibody, V domains shown, Humanized IgG expressed in HEK293; also called humanized antibody VH4+VL5) VH: QVQLVQSGAEVKKPGATVKISCKVSGYAFSNFWMNWVQQAPGKGLEWMGQIYPGDGDTNYNGKFKGRVTITADTSTDTAYMELSSLRSEDTAVYYCARSYYRSAWFAYWGQGTLVTVSR VL: DIVMTQSPSLLSASTGDRVTISCRASQSIGTSIHWYQQKPGKAPELLIYYASESISGVPSRFSGSGSGTDFTLTISCLQSEDFATYYCQQSNNWPLTFGQGTKVEIK , respond with its koff.
Resp: 0.0578

Reference source for all entries: patent US20180036441A1
